- Test system: 328373-195-R-J1-PDC complex spheroids, viability % test/control
- experimental.protocol: Anticancer human tumor 328373-195-R-J1-PDC patient-derived head and neck squamous carcinoma cell line growth inhibition [CLK]
- condition.context: second compound 3.16 µM; first compound 0.1 µM; stronger effect = lower value
We label by threshold. Values of viability, T/C strictly beneath 2% are Fulfilled. Values of 2% and up are Not fulfilled.

Please review the following examples before continuing.
C=C(F)C(=O)N1CCN(c2nc(OCC3CCCN3C)nc3c2CCN(c2cccc4cccc(Cl)c24)C3)CC1CC#N (stereo unspecified) + CN1CCN(c2cc(C(=O)Nc3cc4cc(-c5cnn(C)c5)ccc4cn3)ccn2)CC1
Fulfilled
COC1C=CCC(C)C(C)S(=O)(=O)NC(=O)c2ccc3c(c2)N(CC2CCC21)CC1(CCCc2cc(Cl)ccc21)CO3 (stereo unspecified) + CNC(=O)c1ccc(Nc2nc(OC3CCCC3)c3c(-c4ccc5nc(C)oc5c4)c[nH]c3n2)c(OC)c1
Not fulfilled
C#Cc1c(F)ccc2cc(O)cc(-c3ncc4c(N5CC6CCC(C5)N6)nc(OCC56CCCN5CC(F)C6)nc4c3F)c12 (stereo unspecified) + CNC(=O)c1ccc(Nc2nc(OC3CCCC3)c3c(-c4ccc5nc(C)oc5c4)c[nH]c3n2)c(OC)c1
Not fulfilled
C=CC(=O)N1CCN(c2nc(=O)n(-c3c(C)ccnc3C(C)C)c3nc(-c4c(O)cccc4F)c(F)cc23)C(C)C1 (stereo unspecified) + CN1CCN(c2cc(C(=O)Nc3cc4cc(-c5cnn(C)c5)ccc4cn3)ccn2)CC1
Not fulfilled

Data request: Given CCCS(=O)(=O)Nc1ccc(F)c(C(=O)c2c[nH]c3ncc(-c4ccc(Cl)cc4)cc23)c1F + CN1CCN(c2cc(C(=O)Nc3cc4cc(-c5cnn(C)c5)ccc4cn3)ccn2)CC1 , is recorded viability, T/C strictly lower than 2%?
Data returned: Fulfilled

Data request: viability, T/C under 2%? Item: O=C(c1cc(Cc2n[nH]c(=O)c3ccccc23)ccc1F)N1CCN(C(=O)C2CC2)CC1 + CN1CCN(c2cc(C(=O)Nc3cc4cc(-c5cnn(C)c5)ccc4cn3)ccn2)CC1
Data returned: Not fulfilled

====

Listed below: IC50 values for each entry.
- System: 328373-195-R-J1-PDC complex spheroids, viability % test/control
- experimental.protocol: Anticancer human tumor 328373-195-R-J1-PDC cell line growth inhibition [CLK];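 note: spheroids exposed to the agents for 7 days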
- condition.context: curve of first compound; second compound 1 µM

Reference set, count: 4
COc1c(OCCCN2CCOCC2)ccc2c3n(c(=NC(=O)c4cnc(N)nc4)nc12)CCN3 + CNC(=O)c1ccc(Nc2nc(OC3CCCC3)c3c(-c4ccc5nc(C)oc5c4)c[nH]c3n2)c(OC)c1
< 3.16 nM
C=CC(=O)Nc1cc(Nc2nccc(-c3cn(C)c4ccccc34)n2)c(OC)cc1N(C)CCN(C)C + CN1CCN(c2cc(C(=O)Nc3cc4cc(-c5cnn(C)c5)ccc4cn3)ccn2)CC1
< 0.949 nM
C#Cc1c(F)ccc2cc(O)cc(-c3ncc4c(N5CC6CCC(C5)N6)nc(OCC56CCCN5CC(F)C6)nc4c3F)c12 (stereo not given) + CN1CCN(c2cc(C(=O)Nc3cc4cc(-c5cnn(C)c5)ccc4cn3)ccn2)CC1
< 31.6 nM
CC(CO)NC(=O)c1cc(-c2ccc(Cl)cc2)nn(-c2cnn(C)c2)c1=O (stereo not given) + CN1CCN(c2cc(C(=O)Nc3cc4cc(-c5cnn(C)c5)ccc4cn3)ccn2)CC1
< 31.6 nM

# molecule CC(=O)O[C@H]1C(=O)[C@@]2(C)[C@H]([C@H](OC(=O)c3ccccc3)[C@]3(O)C[C@H](OC(=O)[C@H](O)[C@@H](NC(=O)c4ccccc4)c4ccccc4)C(C)=C1C3(C)C)[C@]1(OC(C)=O)CO[C@@H]1C[C@@H]2O + CN1CCN(c2cc(C(=O)Nc3cc4cc(-c5cnn(C)c5)ccc4cn3)ccn2)CC1 ; its IC50 = < 31.6 nM

====

- Test system: 328373-195-R-J1-PDC complex spheroids, viability % test/control
- experimental.protocol: Anticancer human tumor 328373-195-R-J1-PDC cell line growth inhibition [CLK];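 note: spheroids exposed to the agents for 7 days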
- condition.context: curve of first compound; second compound 0.0316 µM
assay.metric: IC50

// solved cases for IC50 follow
CC(CO)NC(=O)c1cc(-c2ccc(Cl)cc2)nn(-c2cnn(C)c2)c1=O (stereo not given) + CN1CCN(c2cc(C(=O)Nc3cc4cc(-c5cnn(C)c5)ccc4cn3)ccn2)CC1
> 10 µM
CCc1c2c(nc3ccc(O)cc13)-c1cc3c(c(=O)n1C2)COC(=O)[C@]3(O)CC + CN1CCN(c2cc(C(=O)Nc3cc4cc(-c5cnn(C)c5)ccc4cn3)ccn2)CC1
< 0.00316 µM
CCCS(=O)(=O)Nc1ccc(F)c(C(=O)c2c[nH]c3ncc(-c4ccc(Cl)cc4)cc23)c1F + CNC(=O)c1ccc(Nc2nc(OC3CCCC3)c3c(-c4ccc5nc(C)oc5c4)c[nH]c3n2)c(OC)c1
> 10 µM
O=c1[nH]cc(F)c(=O)[nH]1 + CNC(=O)c1ccc(Nc2nc(OC3CCCC3)c3c(-c4ccc5nc(C)oc5c4)c[nH]c3n2)c(OC)c1
< 0.0316 µM
C#Cc1c(F)ccc2cc(O)cc(-c3ncc4c(N5CC6CCC(C5)N6)nc(OCC56CCCN5CC(F)C6)nc4c3F)c12 (stereo not given) + CN1CCN(c2cc(C(=O)Nc3cc4cc(-c5cnn(C)c5)ccc4cn3)ccn2)CC1
> 10 µM
CCc1c2c(nc3ccc(O)cc13)-c1cc3c(c(=O)n1C2)COC(=O)[C@]3(O)CC + CNC(=O)c1ccc(Nc2nc(OC3CCCC3)c3c(-c4ccc5nc(C)oc5c4)c[nH]c3n2)c(OC)c1
< 0.00316 µM
CCN1CCN(Cc2ccc(Nc3ncc(F)c(-c4cc(F)c5nc(C)n(C(C)C)c5c4)n3)nc2)CC1 + CN1CCN(c2cc(C(=O)Nc3cc4cc(-c5cnn(C)c5)ccc4cn3)ccn2)CC1
> 1 µM
C=CC(=O)Nc1cc(Nc2nccc(-c3cn(C)c4ccccc34)n2)c(OC)cc1N(C)CCN(C)C + CN1CCN(c2cc(C(=O)Nc3cc4cc(-c5cnn(C)c5)ccc4cn3)ccn2)CC1
> 0.3 µM
COc1ccc([C@@H](O)c2cc(-c3ncnc4cc(N5CCOCC5)ccc34)c(F)cc2Cl)nn1 + CN1CCN(c2cc(C(=O)Nc3cc4cc(-c5cnn(C)c5)ccc4cn3)ccn2)CC1
> 10 µM

Now look at this entry.
For record C=CC(=O)N1CCN(c2nc(=O)n(-c3c(C)ccnc3C(C)C)c3nc(-c4c(O)cccc4F)c(F)cc23)C(C)C1 (stereo not given) + CNC(=O)c1ccc(Nc2nc(OC3CCCC3)c3c(-c4ccc5nc(C)oc5c4)c[nH]c3n2)c(OC)c1 the listed IC50 is > 10 µM

====

Each item that follows carries a reported pIC50.
- System: 328373-195-R-J1-PDC complex spheroids, viability % test/control
- experimental.protocol: Anticancer human tumor 328373-195-R-J1-PDC cell line growth inhibition [CLK];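 note: spheroids exposed to the agents for 7 days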
- condition.context: curve of first compound; second compound 0.0316 µM
pIC50: −log10 of the molar value.

Example compounds with recorded pIC50:
CC(CO)NC(=O)c1cc(-c2ccc(Cl)cc2)nn(-c2cnn(C)c2)c1=O (centres undefined) + CNC(=O)c1ccc(Nc2nc(OC3CCCC3)c3c(-c4ccc5nc(C)oc5c4)c[nH]c3n2)c(OC)c1
< 5.00
CC1(C)CCC(CN2CCN(c3ccc(C(=O)NS(=O)(=O)c4ccc(NCC5CCOCC5)c([N+](=O)[O-])c4)c(Oc4cnc5[nH]ccc5c4)c3)CC2)=C(c2ccc(Cl)cc2)C1 + CNC(=O)c1ccc(Nc2nc(OC3CCCC3)c3c(-c4ccc5nc(C)oc5c4)c[nH]c3n2)c(OC)c1
5.86
Nc1ccn(C2OC(CO)C(O)C2(F)F)c(=O)n1 (centres undefined) + CNC(=O)c1ccc(Nc2nc(OC3CCCC3)c3c(-c4ccc5nc(C)oc5c4)c[nH]c3n2)c(OC)c1
> 7.50

Now consider a different compound.
The value of pIC50 measured for the compound Cn1ncnc1[C@H]1c2n[nH]c(=O)c3cc(F)cc(c23)N[C@@H]1c1ccc(F)cc1 + CN1CCN(c2cc(C(=O)Nc3cc4cc(-c5cnn(C)c5)ccc4cn3)ccn2)CC1 turned out to be < 7.00

====

- Tested on: 328373-195-R-J1-PDC complex spheroids, viability % test/control
- experimental.protocol: Anticancer human tumor 328373-195-R-J1-PDC cell line growth inhibition [CLK];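 note: spheroids exposed to the agents for 7 days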
- condition.context: second compound 3.16 µM; first compound 0.1 µM; stronger effect = lower value
assay.metric: viability, T/C (%)
State the answer as a number, implicitly in %.

CCN1CCN(Cc2ccc(Nc3ncc(F)c(-c4cc(F)c5nc(C)n(C(C)C)c5c4)n3)nc2)CC1 + CNC(=O)c1ccc(Nc2nc(OC3CCCC3)c3c(-c4ccc5nc(C)oc5c4)c[nH]c3n2)c(OC)c1
15

Data point: CC(Nc1ccc2c(c1)OCCn1cc(N3C(=O)OCC3C(F)F)nc1-2)C(N)=O (centres undefined) + CNC(=O)c1ccc(Nc2nc(OC3CCCC3)c3c(-c4ccc5nc(C)oc5c4)c[nH]c3n2)c(OC)c1 ; viability, T/C = 11

// viability, T/C value for Cn1ncnc1[C@H]1c2n[nH]c(=O)c3cc(F)cc(c23)N[C@@H]1c1ccc(F)cc1 + CNC(=O)c1ccc(Nc2nc(OC3CCCC3)c3c(-c4ccc5nc(C)oc5c4)c[nH]c3n2)c(OC)c1 : 9.49

// viability, T/C value for Nc1ccccc1NC(=O)c1ccc(CNC(=O)OCc2cccnc2)cc1 + CNC(=O)c1ccc(Nc2nc(OC3CCCC3)c3c(-c4ccc5nc(C)oc5c4)c[nH]c3n2)c(OC)c1 : 8.04

The values you see were collected from PubChem BioAssay AID2060620.
